Here the recorded kinase still bound, per cent of control is given for each entry.
- system-name: SLK (human) (UniProt Q9H2G2)
- Sequence (Q9H2G2 whole entry, looked up): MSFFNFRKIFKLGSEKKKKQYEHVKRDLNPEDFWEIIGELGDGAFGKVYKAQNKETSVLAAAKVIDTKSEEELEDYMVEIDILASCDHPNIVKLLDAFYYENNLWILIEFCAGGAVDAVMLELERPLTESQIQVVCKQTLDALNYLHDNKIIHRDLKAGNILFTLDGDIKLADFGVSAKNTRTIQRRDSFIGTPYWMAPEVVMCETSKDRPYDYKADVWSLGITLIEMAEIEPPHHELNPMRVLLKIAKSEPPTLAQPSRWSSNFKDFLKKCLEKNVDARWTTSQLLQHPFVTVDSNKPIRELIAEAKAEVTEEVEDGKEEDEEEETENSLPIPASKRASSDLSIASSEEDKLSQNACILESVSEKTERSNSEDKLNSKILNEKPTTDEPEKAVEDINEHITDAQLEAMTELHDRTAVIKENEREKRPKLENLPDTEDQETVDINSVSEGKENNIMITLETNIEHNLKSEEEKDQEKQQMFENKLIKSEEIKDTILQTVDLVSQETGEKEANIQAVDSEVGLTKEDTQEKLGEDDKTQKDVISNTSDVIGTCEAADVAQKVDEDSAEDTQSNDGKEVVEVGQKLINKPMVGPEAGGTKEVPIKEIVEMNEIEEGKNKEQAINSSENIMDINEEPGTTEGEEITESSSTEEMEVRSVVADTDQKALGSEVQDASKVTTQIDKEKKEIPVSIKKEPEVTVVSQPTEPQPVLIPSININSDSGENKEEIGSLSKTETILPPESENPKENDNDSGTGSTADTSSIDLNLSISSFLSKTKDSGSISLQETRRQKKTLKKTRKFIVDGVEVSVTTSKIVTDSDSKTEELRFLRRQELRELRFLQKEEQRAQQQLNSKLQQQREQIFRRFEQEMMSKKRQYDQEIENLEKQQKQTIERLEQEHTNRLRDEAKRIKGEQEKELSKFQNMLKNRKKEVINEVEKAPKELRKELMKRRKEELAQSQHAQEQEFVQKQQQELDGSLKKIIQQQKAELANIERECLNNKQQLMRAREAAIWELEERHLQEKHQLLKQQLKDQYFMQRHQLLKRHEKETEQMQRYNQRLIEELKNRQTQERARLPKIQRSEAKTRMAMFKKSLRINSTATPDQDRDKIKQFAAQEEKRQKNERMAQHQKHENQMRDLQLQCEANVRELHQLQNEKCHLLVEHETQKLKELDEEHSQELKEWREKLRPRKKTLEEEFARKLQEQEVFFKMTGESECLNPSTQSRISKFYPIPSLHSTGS
- method-notes: KINOMEscan competition binding
- test-context: compound 1.0 µM
parameter-measured: kinase still bound, per cent of control (%)

1) CN(C)C/C=C/C(=O)Nc1cccc(C(=O)Nc2ccc(Nc3nccc(/C(C#N)=C4\Nc5ccccc5S4)n3)cc2)c1 8.6
2) Cc1cc(NC(=O)c2cccc(NC(=O)/C=C/CN(C)C)c2)ccc1Nc1nccc(-c2cccnc2)n1 100
3) CN(C)C/C=C/C(=O)Nc1cccc(C(=O)Nc2ccc(Nc3nccc(-c4cccnc4)n3)cc2)c1 100
4) CN(C)C/C=C/C(=O)Nc1cccc(C(=O)Nc2ccc(Nc3nccc(-c4c(-c5ccccc5)nn5ccccc45)n3)cc2)c1 18
